Ki reference
# experimental.target: Adrenergic receptor alpha-2 (Rattus norvegicus, UniProt P22086+P19328+P22909)

compound: Cc1c(Cl)nc(N2CCN(C)CC2)nc1NC(C)C
Ki: 16 nM

compound: COc1c(Cl)nc(N2CCN(C)CC2)nc1NC(C)C
Ki: 50 nM

compound: CSc1c(Cl)nc(N2CCN(C)CC2)nc1NC1CCCCC1
Ki: 290 nM

compound: CSc1c(N)nc(N2CCN(C)CC2)nc1Cl
Ki: 620 nM

compound: CSc1c(Cl)nc(N2CCN(C)CC2)nc1Nc1ccccc1
Ki: 240 nM

compound: CC(C)Nc1nc(N2CCN(C)CC2)nc(Cl)c1Cl
Ki: 5 nM

compound: CNc1nc(N2CCN(C)CC2)nc(Cl)c1Br
Ki: 150 nM

compound: CNc1cc(Cl)nc(N2CCN(C)CC2)n1
Ki: 50 nM

compound: CC(C)Nc1cc(Cl)nc(N2CCN(C)CC2)n1
Ki: 130 nM

compound: CNc1nc(Cl)c(SC)c(N2CCN(C)CC2)n1 [MEZILAMINE]
Ki: 9 nM

compound: CN1CCN(c2nc(N)c(Cl)c(Cl)n2)CC1
Ki: 50 nM

compound: CSc1c(Cl)nc(N2CCN(C)CC2)nc1NC1CCCC1
Ki: 22 nM

compound: CC(C)Nc1nc(N2CCNCC2)nc(Cl)c1Br
Ki: 16 nM
